Where do the numbers come from? From the supplement of paper PMC10567573.

B1: C20orf112 (parent)
chain: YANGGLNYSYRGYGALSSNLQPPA

Variants of: B1
assay protocol: protein stability index of a GFP-peptide fusion (GPS, HEK-293T) (PSI 1-6); higher = more stable;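 note: lentivirally expressed fusions sorted by FACS into six bins by GFP to DsRed ratio, PSI derived from sequencing read proportions per bin multiplied by bin number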
settings: c terminus: a fixed tail appended
measured quantity: protein stability index
Enter the number alone.

mutations | protein stability index
Y13A | 1.93
N19Q | 2.14

## Input Form field: reported protein stability index of A24D
## Output 1.86

## Input Form field: reported protein stability index of S18C
## Output 2.17

## Input Form field: reported protein stability index of Y13T
## Output 1.66

## Input Form field: reported protein stability index of S9Q
## Output 1.46

## Input Form field: reported protein stability index of G12A
## Output 2.46
